Taken from patent US20040192720A1.

Target Desc: human B2 bradykinin receptors (CHO-hB2 cell membranes) (Homo sapiens, UniProt P30411)
Construct: purchased Receptor Biology, Inc. (Baltimore, Md.); host or cells: CHO-hB2 cells (membranes)
Sequence (P30411 1-391): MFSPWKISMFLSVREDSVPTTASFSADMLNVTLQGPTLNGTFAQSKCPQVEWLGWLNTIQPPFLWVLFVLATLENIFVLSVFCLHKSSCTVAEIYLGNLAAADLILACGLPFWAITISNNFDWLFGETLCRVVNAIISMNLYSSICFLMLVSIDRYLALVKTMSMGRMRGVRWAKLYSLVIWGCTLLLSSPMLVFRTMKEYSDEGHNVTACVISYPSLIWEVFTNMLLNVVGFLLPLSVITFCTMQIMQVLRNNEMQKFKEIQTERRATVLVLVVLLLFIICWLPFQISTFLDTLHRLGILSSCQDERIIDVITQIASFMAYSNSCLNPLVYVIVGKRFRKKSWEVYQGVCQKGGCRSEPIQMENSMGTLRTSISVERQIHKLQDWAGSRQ
Test Name: [35S]GTPγS Binding Assay in CHO-hB2 Cell Membranes
Type: biochemical
Condition Set: bradykinin-stimulated [35S]GTPγS binding

Molecule: Cc1ccc2cccc(OCc3c(Cl)ccc(N(C)C(=O)Cc4ccc(C(=O)c5ccc([N+](=O)[O-])c(C)c5)n4C)c3Cl)c2n1
Functional Activity (word result): Antagonist

Molecule: Cc1ccc2cccc(OCc3c(Cl)ccc(N(C)C(=O)Cc4cc(C(=O)c5ccc(C#N)cc5)n(C)c4)c3Cl)c2n1
Functional Activity (word result): Antagonist

Molecule: Cc1ccc2cccc(OCc3c(Cl)cc(Cl)c(N(C)C(=O)Cc4ccc(C(=O)c5ccc(Cl)nc5)n4C)c3Cl)c2n1
Functional Activity (word result): Antagonist
